Overview of recorded inhibition at 72 h, 100 µM for various molecules
assay: Cytotoxicity against mouse RAW264.7 cells assessed as growth inhibition at 100 uM after 72 hrs by MTT assay relative to control; assay type: cell-based; details: read-out: GI
measured.parameter: inhibition at 72 h, 100 µM (%)

# structure.string, recorded.value
records = [
    ("O=C(N/N=C(/N=N/c1ccc([N+](=O)[O-])cc1)c1ccccc1)c1cc(O)c(O)c(O)c1", 34.6),
    ("O=C(N/N=C(/N=N/c1ccccc1Cl)c1ccccc1)c1cc(O)c(O)c(O)c1", 32.6),
    ("O=C(N/N=C(/N=N/c1ccc(Cl)cc1Cl)c1ccccc1)c1cc(O)c(O)c(O)c1", 21.5),
    ("Cc1ccccc1/N=N/C(=N/NC(=O)c1cc(O)c(O)c(O)c1)c1ccccc1", 41.5),
    ("O=C(N/N=C(/N=N/c1ccc(F)cc1)c1ccccc1)c1cc(O)c(O)c(O)c1", 23.7),
    ("COc1ccc(/N=N/C(=N/NC(=O)c2cc(O)c(O)c(O)c2)c2ccccc2)cc1", 15),
    ("O=C(N/N=C(/N=N/c1ccccc1[N+](=O)[O-])c1ccccc1)c1cc(O)c(O)c(O)c1", 5.43),
    ("O=C(N/N=C(/N=N/c1ccccc1)c1ccccc1)c1cc(O)c(O)c(O)c1", 41.4),
    ("COc1ccccc1/N=N/C(=N/NC(=O)c1cc(O)c(O)c(O)c1)c1ccccc1", 52.7),
]

* * *

assay: Cytotoxicity against mouse RAW264.7 cells assessed as growth inhibition at 50 uM after 72 hrs by MTT assay relative to control; assay type: cell-based; details: read-out: GI

# structure.string, value.units, inhibition at 72 h, 50 µM
records = [
    ("Cc1ccccc1/N=N/C(=N/NC(=O)c1cc(O)c(O)c(O)c1)c1ccccc1", "%", 32.7),
    ("O=C(N/N=C(/N=N/c1ccc(F)cc1)c1ccccc1)c1cc(O)c(O)c(O)c1", "%", 11.8),
    ("O=C(N/N=C(/N=N/c1ccccc1[N+](=O)[O-])c1ccccc1)c1cc(O)c(O)c(O)c1", "%", 2.11),
    ("O=C(N/N=C(/N=N/c1ccccc1Cl)c1ccccc1)c1cc(O)c(O)c(O)c1", "%", 24.5),
    ("O=C(N/N=C(/N=N/c1ccccc1)c1ccccc1)c1cc(O)c(O)c(O)c1", "%", 13.6),
    ("COc1ccc(/N=N/C(=N/NC(=O)c2cc(O)c(O)c(O)c2)c2ccccc2)cc1", "%", 4.51),
    ("O=C(N/N=C(/N=N/c1ccc(Cl)cc1Cl)c1ccccc1)c1cc(O)c(O)c(O)c1", "%", 12.1),
    ("O=C(N/N=C(/N=N/c1ccc([N+](=O)[O-])cc1)c1ccccc1)c1cc(O)c(O)c(O)c1", "%", 11.1),
    ("COc1ccccc1/N=N/C(=N/NC(=O)c1cc(O)c(O)c(O)c1)c1ccccc1", "%", 46.5),
]

* * *

Overview of recorded inhibition for various compounds
system: Mycobacterium tuberculosis; experiment: Inhibition of Mycobacterium tuberculosis His6-tagged InhA expressed in Escherichia coli BL21 (DE3) assessed as decrease in NADH oxidation to NAD+ at 10 uM using 2-trans-decenoyl-CoA as substrate preincubated for 2 hrs followed by substrate and NADH addition measured for 1 min by spectrophotometric method relative to control

# structure.string, inhibition [%]
measured = [
    ("O=C(N/N=C(/N=N/c1ccc([N+](=O)[O-])cc1)c1ccccc1)c1cc(O)c(O)c(O)c1", 57.1),
    ("Cc1ccccc1/N=N/C(=N/NC(=O)c1cc(O)c(O)c(O)c1)c1ccccc1", 81.4),
    ("O=C(N/N=C(/N=N/c1ccccc1)c1ccccc1)c1cc(O)c(O)c(O)c1", 42.2),
    ("O=C(N/N=C(/N=N/c1ccc(Cl)cc1Cl)c1ccccc1)c1cc(O)c(O)c(O)c1", 73.2),
    ("O=C(N/N=C(/N=N/c1ccc(F)cc1)c1ccccc1)c1cc(O)c(O)c(O)c1", 87.1),
    ("O=C(N/N=C(/N=N/c1ccccc1[N+](=O)[O-])c1ccccc1)c1cc(O)c(O)c(O)c1", 62.3),
    ("O=C(N/N=C(/N=N/c1ccccc1Cl)c1ccccc1)c1cc(O)c(O)c(O)c1", 57.1),
    ("COc1ccccc1/N=N/C(=N/NC(=O)c1cc(O)c(O)c(O)c1)c1ccccc1", 71.7),
    ("COc1ccc(/N=N/C(=N/NC(=O)c2cc(O)c(O)c(O)c2)c2ccccc2)cc1", 69.3),
]
